# Tgt: human TRPV3 (Homo sapiens, UniProt Q8NET8)
# Construct: expressed in transfected cells
# Sequence (Q8NET8 1-790): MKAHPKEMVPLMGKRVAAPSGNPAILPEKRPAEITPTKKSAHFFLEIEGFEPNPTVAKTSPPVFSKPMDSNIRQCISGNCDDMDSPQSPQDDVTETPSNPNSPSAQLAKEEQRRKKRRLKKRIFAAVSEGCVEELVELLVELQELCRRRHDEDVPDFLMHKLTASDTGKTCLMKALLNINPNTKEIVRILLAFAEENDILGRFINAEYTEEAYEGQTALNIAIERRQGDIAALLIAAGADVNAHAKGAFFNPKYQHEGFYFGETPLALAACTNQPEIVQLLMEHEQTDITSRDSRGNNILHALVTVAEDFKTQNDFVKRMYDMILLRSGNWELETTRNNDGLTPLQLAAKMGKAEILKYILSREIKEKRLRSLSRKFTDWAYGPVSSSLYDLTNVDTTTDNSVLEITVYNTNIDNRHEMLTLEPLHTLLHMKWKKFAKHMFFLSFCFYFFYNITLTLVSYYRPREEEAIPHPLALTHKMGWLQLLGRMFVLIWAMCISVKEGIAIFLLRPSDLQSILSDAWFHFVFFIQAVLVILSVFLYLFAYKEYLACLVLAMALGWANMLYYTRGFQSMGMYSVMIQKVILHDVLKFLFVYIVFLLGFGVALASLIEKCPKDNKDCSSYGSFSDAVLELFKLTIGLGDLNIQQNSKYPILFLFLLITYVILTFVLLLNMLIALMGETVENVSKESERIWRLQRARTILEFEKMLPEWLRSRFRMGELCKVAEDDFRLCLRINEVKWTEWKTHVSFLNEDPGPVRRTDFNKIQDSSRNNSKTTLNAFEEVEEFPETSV
# Assay Protocol: In vitro antagonism of recombinant human TRPV3 activation (FLIPR Tetra calcium assay)
# Assay type: cell-based
# Experimental Conditions: HEK293 cells stably expressing human TRPV3; agonist 2-APB at 80 μM; actual measured value shown parenthetically; in most cases average of at least two runs; read-out: IC50
This listing pairs compounds with measured pIC50.
Formally, pIC50 is defined as -log10 of the concentration c, with c in mol/L.

For orientation, consider the following solved cases.
Compound: Cc1ccc(CC2(C(O)c3ccccn3)CCC2)cc1 (stereo not drawn) [Example 52]
Assay Value: 5.30
--
Compound: OC(c1ccccn1)C1(c2ccc(F)c(F)c2)CCCO1 (single isomer, unassigned) [Example 108]
Assay Value: 6.21
--
Compound: OC(CC1(c2cccc(Cl)c2)CCC1)c1ccccn1 (stereo not drawn) [Example 72]
Assay Value: 5.65
--
Compound: OC(c1ccccn1)C1(c2ccc(C(F)(F)F)cc2)CNC1 (stereo not drawn) [Example 152]
Assay Value: 4.71
--
Compound: OC(c1ccccn1)C1(c2cc(C(F)(F)F)ccn2)CCC1 (stereo not drawn) [Example 116]
Assay Value: 6.12

Query block: # return recorded pIC50 for input OC(c1ncccn1)C1(c2cccc(OC(F)(F)F)c2)CCC1 (stereo not drawn) [Example 37]
Result block: 6.08

Query block: # return recorded pIC50 for input CC1(O)CC(c2ccnc(C(F)(F)F)c2)(C(O)c2ccccn2)C1 (single isomer, unassigned) [Example 302]
Result block: 6.02

Query block: # return recorded pIC50 for input OC(c1ccccn1)C1(c2cccc(Cl)c2)COC1 (stereo not drawn) [Example 86]
Result block: 5.45

Query block: # return recorded pIC50 for input NC1CCCCC1C(O)C1(c2cccc(OC(F)(F)F)c2)CCC1 (stereo not drawn) [Example 210]
Result block: 5.48

Query block: # return recorded pIC50 for input O=C1CC(c2ccc(Cl)c(Cl)c2)([C@H](O)c2ccccn2)C1 [Example 117]
Result block: 5.62
